Provenance of the data: patent US20240150440A1

Target: T1, SARS-CoV-2 Delta Variant RBD (SARS-CoV-2 Delta variant)
T1 construct: domain: RBD; coated on ELISA plates
Experiment: ELISA, RBD coated
property: EC50 (nM)
Report the figure in nM without appending any unit label.

PP912 MBP-5HVZ-S2b-G8-H6 (VHH, Form: Dimer) VHH: QVQLVESGGGLVQPGGSLRLSCAASGSIQSYEAMHWFRQAPGKAREWVAVITWGDSTQYGDSVKGRFTISRDNAKNTVYLQMNSLKPEDTAVYYCAADVRQGYSSWGQGTQVTVSS: 622

So for PP1153 MBP-5HVZ-PAPA-R5d-D4-H6 (VHH, Form: Dimer) VHH: QVQLVESGGGLVQPGGSLRLSCAASGSDFTINAMHWFRQAPGKQREFVATITSTSSTAYRDSVKGRFTISRDNAKNTVYLQMNSLKPEDTAVYYCAAFAVRDADTAGWTARDYWGQGTQVTVSS , the logged EC50 turned out to be 223

So for PP909 MBP-5HVZ-S2b-A7-H6 (VHH, Form: Dimer) VHH: QVQLVESGGGLVQPGGSLRLSCAASGSSDSWNALHWFRQAPGKEREFVAGISSAGSGYYADSVKGRFTISRDNAKNTVYLQMNSLKPEDTAVYYCNGYEHTTGYDYWGQGTQVTVSS , the logged EC50 turned out to be 81.4

So for PP935 MBP-5HVZ-S3b-E11-H6 (VHH, Form: Dimer) VHH: QVQLVESGGGLVQPGGSLRLSCAASGDIYSQSAMAWYRQAPGKEREFVAAITTTGSRSYKDSVKGRFTISRDNAKNTVYLQMNSLKPEDTAVYYCAAFAVRSSSVSDAYDYWGQGTQVTVSS , the logged EC50 turned out to be 151
